Exercise: for every item that follows, state its recorded 50% inhibition concentration, Regnase-1 phosphorylation by TBK1 (AlphaScreen).
Target: T1, C-terminal human Regnase-1 (amino acids 301 to 599) with N-terminal FLAG tag and C-terminal BirA recognition … (human, UniProt Q5D1E8 301-599)
T1 sequence: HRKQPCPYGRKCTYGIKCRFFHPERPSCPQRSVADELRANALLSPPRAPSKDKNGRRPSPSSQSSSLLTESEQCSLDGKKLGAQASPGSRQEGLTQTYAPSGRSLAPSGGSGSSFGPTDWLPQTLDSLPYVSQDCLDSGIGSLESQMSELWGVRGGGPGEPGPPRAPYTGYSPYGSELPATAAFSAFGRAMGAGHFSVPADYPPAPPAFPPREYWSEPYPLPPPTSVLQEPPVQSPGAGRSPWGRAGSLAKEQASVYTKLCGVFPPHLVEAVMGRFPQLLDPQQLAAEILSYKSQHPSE
Assay: cell-based or functional assay
Positions of bridges follow the written chain, without caps; N, C: chain ends. Non-standard residues stand in square brackets, D forms with d. *: point of attachment. Pyrrolidide = C1CCN(*)C1; dNMeA = CN[C@H](C)C(=O)O
Give bare numbers, in µM.

binder	units.label	reported.value
[dNMeA]PTSSWYKIWD-Pyrrolidide (lactam N-11) [PP23]	µM	30.7
[dNMeA]TYGHSSWYKIWD-Pyrrolidide (lactam N-13) [PP9]	µM	7.9
XGYANSWYNIWD (HELM PEPTIDE1{[meA].G.Y.A.N.S.W.Y.N.I.W.D.[C1CCN([*:1])C1]}$PEPTIDE1,PEPTIDE1,1:R1-12:R3$$$V2.0; SMILES CC[C@H](C)[C@@H]1NC(=O)[C@H](CC(N)=O)NC(=O)[C@H](Cc2ccc(O)cc2)NC(=O)[C@H](Cc2c[nH]c3ccccc23)NC(=O)[C@H](CO)NC(=O)[C@H](CC(N)=O)NC(=O)[C@H](C)NC(=O)[C@H](Cc2ccc(O)cc2)NC(=O)CNC(=O)[C@H](C)N(C)C(=O)C[C@@H](C(=O)N2CCCC2)NC(=O)[C@H](Cc2c[nH]c3ccccc23)NC1=O) [PP2]	µM	22.4

--- query ---
Record summary for XNFNSAYYRAIWD (HELM PEPTIDE1{[meA].N.F.N.S.A.Y.Y.R.A.I.W.D.[C1CCN([*:1])C1]}$PEPTIDE1,PEPTIDE1,1:R1-13:R3$$$V2.0; SMILES CC[C@H](C)[C@@H]1NC(=O)[C@H](C)NC(=O)[C@H](CCCNC(=N)N)NC(=O)[C@H](Cc2ccc(O)cc2)NC(=O)[C@H](Cc2ccc(O)cc2)NC(=O)[C@H](C)NC(=O)[C@H](CO)NC(=O)[C@H](CC(N)=O)NC(=O)[C@H](Cc2ccccc2)NC(=O)[C@H](CC(N)=O)NC(=O)[C@H](C)N(C)C(=O)C[C@@H](C(=O)N2CCCC2)NC(=O)[C@H](Cc2c[nH]c3ccccc23)NC1=O) [PP7] : reported 50% inhibition concentration, Regnase-1 phosphorylation by TBK1 (AlphaScreen) = 4.6

Where these numbers come from: patent US20250018014A1
